tested on: OVCAR-4 ovarian; experiment: NCI tumour cell line growth inhibition, 48 h
MEASURED_PROPERTY: TGI

| COMPOUND | SYSTEM_UNDER_TEST | TGI |
| --- | --- | --- |
| COc1ccc(-c2cc(-c3ccccc3)c(C#N)c(=O)[nH]2)cc1 | OVCAR-4 ovarian | > 100 µM |
| Cn1cc2ccccc2c1-c1nc(F)nc(Oc2ccc3c(c2)CC[C@@H]2C3CC[C@]3(C)C(O)CCC23)n1 (stereo not given in full) | OVCAR-4 ovarian | 28.5 µM |
| COc1ccc(S(=O)(=O)O)cc1NS(=O)(=O)c1ccc(C)cc1 | OVCAR-4 ovarian | > 100 µM |
| CC1(C)CCc2cc3c(cc2O1)OC(C)(C)C1c2c(ccc4c2CCC(C)(C)O4)OC31 (stereo not given) | OVCAR-4 ovarian | > 100 µM |
| CC(C)OC(=O)c1ccc(CCC2=CC(=O)C(Br)=CC2=O)cc1 | OVCAR-4 ovarian | 23.1 µM |
| Cc1cc(=O)c2c(O)c3c(O)cc(O)c4c5c(O)cc(O)c6c(O)c7c(=O)cc(C)c8c1c2c(c34)c(c65)c78 | OVCAR-4 ovarian | > 100 µM |

// TGI lookup, compound = "O=C(CCCn1ccnc1[N+](=O)[O-])NCCn1cnc([N+](=O)[O-])c1" , result: > 100 µM

Documented TGI of "C=C(C)CC1=C(C(=S)NCCO[Si](C)(C)C(C)(C)C)C(OCC)(OCC)C1=O" : 34.3 µM

Documented TGI of "CC(/C=N/NC1=NCCCCN1)=N\NC1=NCCCCN1" : > 100 µM

So for "CCOC(=O)Nc1nc2c(F)c(F)c(F)cc2s1" , the logged TGI turned out to be > 100 µM

For this compound ( "Cn1c2ccccc2c2cc(-c3ccccc3)c3c(c21)C(=O)C=CC3=O" ), measured TGI is 41.3 µM

====

test system: HOP-92 NSCLC; experiment: NCI tumour cell line growth inhibition, 48 h
Some compounds, each annotated with its measured TGI.

Value of measured TGI for the entry Cc1ccc([N+](=O)[O-])cc1S(=O)(=O)Nc1ccc(C2=NN(c3ccc([N+](=O)[O-])cc3[N+](=O)[O-])C(c3ccccc3O)C2)cc1 (stereo not drawn) : > 100 µM

Per the record, CC(=O)OCC1OC(OCC2OC(N3C(=S)N[C@H]([C@@H](O)[C@H](O)[C@H](O)CO)[C@H]3O)C(OC(C)=O)C(OC(C)=O)C2OC(C)=O)C(OC(C)=O)C(OC(C)=O)C1OC(C)=O (stereo partly drawn) has TGI of > 100 µM

Reported TGI ( "CCOC(=O)CNC(SC)=C(C#N)C#N" ) = > 100 µM

====

test system: UACC-62 melanoma; experiment: NCI tumour cell line growth inhibition, 48 h
MEASURED_PROPERTY: GI50

Some solved cases for reference:
| MOLECULE | MEASUREMENT |
| --- | --- |
| CC12C=CC(C)(O1)C1C2c2ccccc2S1(=O)=O (centres undefined) | > 100000 nM |
| Cn1cc(-c2csc(-c3cn(CCN4CCOCC4)c4ccc(F)cc34)n2)c2cccnc21 | 2060 nM |
| Cc1cc(-c2ccccc2)c(C)n1Cc1ccc(Cl)cc1 | 3440 nM |
| CCC[CH2][Sn]1([CH2]CCC)[O]C(=O)C[S]1 | 1350 nM |
| COc1ccc2nc(-c3ccccc3)cc(Nc3ccc(/C(C)=N/O)cc3)c2c1 | 2100 nM |

// below: GI50 requested for another molecule
Record for "COc1ccc(-c2nnc3n(C)c(=O)c4ccccc4n23)cc1O" under target or system UACC-62 melanoma: GI50 reported as 441 nM

Data provenance: PubChem BioAssay (NCI)
